Measurement Target: AMPK
Assay Name: AMPK activation, enzyme-linked immunosorbent assay
Assay type: biochemical
Run Conditions: Table 4, AMPK activation, ELISA; formate salt
Experimental: Compounds 1-50 of Table 1 were assayed for their ability to activate AMPK using an enzyme-linked immunosorbent assay. Compounds 51-60 of Table 1 were assayed for their ability to activate AMPK using an enzyme-linked immunosorbent assay. Compounds 61-131 of Table 1 were assayed for their ability to activate AMPK using an enzyme-linked immunosorbent assay. Compounds 137-141 and 143-155 of Table 1 were assayed for their ability to activate AMPK using an enzyme-linked immunosorbent assay. […]
pEC50: −log10 of the molar value. Where a name gives a salt, the structure may show the parent alone.
Property: pEC50

According to the records, this molecule O=C(NC1CCN(Cc2ccncc2)CC1)c1cc2cc(OC3CCN(c4ccc(C(F)(F)F)cc4)CC3)ccc2o1 [Compound 105, formate salt] displays pEC50 of > 7.00

###

Answer each item with its documented pEC50.
Measurement Target: AMPK
Assay Name: AMPK activation, enzyme-linked immunosorbent assay
Assay type: biochemical
Run Conditions: Table 4, AMPK activation, ELISA
pEC50: −log10 of the molar value. Where a name gives a salt, the structure may show the parent alone.

[
  {
    "Molecule": "O=C(NC1CCN(C(=O)c2ccncc2)CC1)c1cc2cc(OC3CCN(c4ccc(C(F)(F)F)cc4)CC3)ccc2o1",
    "Measurement Target": "AMPK",
    "Property": "pEC50",
    "Endpoint Value": "> 7.00"
  },
  {
    "Molecule": "O=C(N[C@@H]1CCN(C(=O)c2ccncc2)C1)c1cc2cc(OC3CCN(c4ccc(C(F)(F)F)cc4)CC3)ccc2o1",
    "Measurement Target": "AMPK",
    "Property": "pEC50",
    "Endpoint Value": "5.00 to 6.00"
  },
  {
    "Molecule": "O=C(NC1CCN(Cc2ccncc2)CC1)c1cc2ccc(OC3CCN(c4ccc(C(F)(F)F)cc4)CC3)cc2o1",
    "Measurement Target": "AMPK",
    "Property": "pEC50",
    "Endpoint Value": "> 7.00"
  },
  {
    "Molecule": "Cc1c(C(=O)NC2CCN(Cc3ccccc3C#N)CC2)oc2cc(OC3CCN(c4ccc(C(F)(F)F)cc4)CC3)ccc12",
    "Measurement Target": "AMPK",
    "Property": "pEC50",
    "Endpoint Value": "> 7.00"
  },
  {
    "Molecule": "CN(C(=O)c1cc2cc(OC3CCN(c4ccc(C(F)(F)F)cc4)CC3)ccc2o1)C1CCN(Cc2ccccn2)CC1",
    "Measurement Target": "AMPK",
    "Property": "pEC50",
    "Endpoint Value": "> 7.00"
  }
]

Consider the following items and state reported pEC50 for each.
1. CN(C(=O)c1cc2cc(OC3CCN(c4ccc(C(F)(F)F)cc4)CC3)ccc2o1)C1CCN(Cc2ccccc2C#N)CC1
2. Cc1c(C(=O)NC2CCN(Cc3ccc(C#N)cc3)CC2)oc2cc(OC3CCN(c4ccc(C(F)(F)F)cc4)CC3)ccc12
3. N#Cc1ccccc1CN1CCC(NC(=O)c2cc3ccc(OC4CCN(c5ccc(OC(F)(F)F)cc5)CC4)cc3o2)CC1
4. O=C(NC1CCN(Cc2ccc(F)cc2)CC1)c1cc2ccc(OC3CCN(c4ccc(OC(F)(F)F)cc4)CC3)cc2o1
5. Cc1c(C(=O)NC2CCN(Cc3ccncc3)CC2)oc2cc(OC3CCN(c4ccc(C(F)(F)F)cc4)CC3)ccc12
6. O=C(N[C@H]1CCNC1)c1cc2cc(OC3CCN(Cc4ccc(Cl)cc4)CC3)ccc2o1

6.30 to 7.00
> 7.00
> 7.00
> 7.00
> 7.00
< 4.30

Please supply pEC50 for each of the following items, keeping them in order.
1. N#Cc1ccc(CN2CCC(NC(=O)c3cc4ccc(OC5CCN(c6ccc(C(F)(F)F)cc6)CC5)cc4o3)CC2)cc1
2. CN(C(=O)c1cc2cc(OC3CCN(c4ccc(C(F)(F)F)cc4)CC3)ccc2o1)C1CCN(Cc2ccncc2)CC1
3. CN(C(=O)c1cc2cc(OC3CCN(c4ccc(C(F)(F)F)cc4)CC3)ccc2o1)C1CCN(C(=O)OC(C)(C)C)CC1
4. O=C(N[C@@H]1CCN(Cc2cccnc2)C1)c1cc2cc(OC3CCN(c4ccc(C(F)(F)F)cc4)CC3)ccc2o1
5. O=C(NC1CCN(Cc2cccnc2)CC1)c1cc2ccc(OC3CCN(c4ccc(C(F)(F)F)cc4)CC3)cc2o1
6. O=C(NC1CCN(Cc2ccc(C(F)(F)F)cc2)CC1)c1cc2cc(OC3CCN(c4ccc(C(F)(F)F)cc4)CC3)ccc2o1
7. CC(C)(C)OC(=O)N1CC[C@H](NC(=O)c2cc3cc(OC4CCN(Cc5ccc(Cl)cc5)CC4)ccc3o2)C1

["> 7.00", "6.30 to 7.00", "5.00 to 6.00", "6.30 to 7.00", "> 7.00", "> 7.00", "5.00 to 6.00"]

Need pEC50 for each of these molecules.
1. O=C(N[C@@H]1CCNC1)c1cc2cc(OC3CCN(c4ccc(C(F)(F)F)cc4)CC3)ccc2o1
2. O=C(NC1CCN(Cc2cccnc2)CC1)c1cc2cc(OC3CCN(c4ccc(C(F)(F)F)cc4)CC3)ccc2o1
3. Cc1c(C(=O)NC2CCNCC2)oc2cc(OC3CCN(c4ccc(C(F)(F)F)cc4)CC3)ccc12
4. N#Cc1ccc(CN2CCC(Oc3ccc4oc(C(=O)NC5CCN(Cc6ccccc6)CC5)cc4c3)CC2)cc1 [Compound 70]
5. O=C(NC1CCN(Cc2ccncc2)CC1)c1cc2cc(OC3CCN(c4ccc(C(F)(F)F)cc4)CC3)ccc2o1

1. < 4.30
2. > 7.00
3. 4.30 to 5.00
4. > 7.00
5. 6.30 to 7.00

Hi! Can you tell me pEC50 for each of these molecules?
1. O=C(NC1CCNCC1)c1cc2ccc(OC3CCN(c4ccc(C(F)(F)F)cc4)CC3)cc2o1 [Compound 84, hydrochloride]
2. O=C(NC1CCN(Cc2ccncc2)CC1)c1cc2cc(OC3CCN(c4ccc(OC(F)(F)F)cc4)CC3)ccc2o1 [Compound 78, trifluoroacetate salt]
3. N#Cc1ccc(CN2CCC(Oc3ccc4oc(C(=O)NC5CCN(Cc6ccccc6)CC5)cc4c3)CC2)cc1 [Compound 114]
4. Cc1c(C(=O)NC2CCN(Cc3cccc(C#N)c3)CC2)oc2cc(OC3CCN(c4ccc(C(F)(F)F)cc4)CC3)ccc12
5. Cc1c(C(=O)NC2CCN(Cc3ccccn3)CC2)oc2cc(OC3CCN(c4ccc(C(F)(F)F)cc4)CC3)ccc12

1. 4.30 to 5.00
2. > 7.00
3. 6.30 to 7.00
4. > 7.00
5. > 7.00
